Recorded values, source patent US9708370B2.

biological target: CD36 (Rattus norvegicus (Rat), UniProt Q07969); experiment: CD36 receptor covalent photolabelling binding assay, competition with [125I]Tyr-Bpa-Ala-hexarelin on rat cardiac membranes; conditions: Table 3; rat cardiac membranes; [125I]Tyr-Bpa-Ala-hexarelin as radioligand; read-out: IC50, binding affinity of aza peptide derivatives towards CD36
Sequence (Q07969 whole entry): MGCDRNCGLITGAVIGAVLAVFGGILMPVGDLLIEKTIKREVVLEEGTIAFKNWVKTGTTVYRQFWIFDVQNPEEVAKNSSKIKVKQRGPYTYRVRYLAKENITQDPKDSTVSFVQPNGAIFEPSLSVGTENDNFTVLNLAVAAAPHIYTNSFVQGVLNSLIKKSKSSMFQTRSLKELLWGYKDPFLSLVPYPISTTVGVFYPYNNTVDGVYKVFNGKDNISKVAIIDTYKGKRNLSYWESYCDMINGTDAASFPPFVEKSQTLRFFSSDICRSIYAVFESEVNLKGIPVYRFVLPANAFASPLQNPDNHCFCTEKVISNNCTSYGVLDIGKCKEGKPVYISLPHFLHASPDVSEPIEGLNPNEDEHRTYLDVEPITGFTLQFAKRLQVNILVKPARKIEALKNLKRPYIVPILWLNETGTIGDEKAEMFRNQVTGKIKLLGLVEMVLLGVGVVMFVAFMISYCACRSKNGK
pIC50: −log10 of the molar value. Starred links: 1 amine or outer side, 2 acyl side, 3 side chain; linkers in the order of their positions; H or OH if unused. Non-standard residues stand in square brackets, D forms with d. Residues, ends and D or L forms follow the SMILES beside them. azaTyr = O=C(N(Cc1ccc(O)cc1)N[*:1])[*:2]; azaPhe = O=C(N(Cc1ccccc1)N[*:1])[*:2]; X2 = O=C(N(CCc1ccccc1)N[*:1])[*:2]; azaLeu = CC(C)CN(N[*:1])C(=O)[*:2]
Catalogue of pIC50 readings, one per entry.
MEASUREMENT_KIND: pIC50

{"MOLECULE": "C[C@H](NC(=O)[C@@H](Cc1c[nH]c2ccccc12)NC(=O)[C@@H](N)Cc1cnc[nH]1)C(=O)NN(CCc1ccccc1)C(=O)N[C@H](Cc1ccccc1)C(=O)N[C@@H](CCCCN)C(N)=O [DBG253-5, His-D-Trp-Ala-azahomoPhe-D-Phe-Lys-NH2] (H-H[dW]A[X2][dF]K-NH2)", "SIGN": "<", "DATA_VALUE": 5.00}
{"MOLECULE": "CC(C)CN(NC(=O)[C@H](C)NC(=O)[C@@H](Cc1c[nH]c2ccccc12)NC(=O)[C@@H](N)Cc1cnc[nH]1)C(=O)N[C@H](Cc1ccccc1)C(=O)N[C@@H](CCCCN)C(N)=O [DBG253-2, His-D-Trp-Ala-azaLeu-D-Phe-Lys-NH2] (H-H[dW]A[azaLeu][dF]K-NH2)", "SIGN": "=", "DATA_VALUE": 2.54}
{"MOLECULE": "C[C@H](NC(=O)[C@@H](Cc1c[nH]c2ccccc12)NC(=O)[C@@H](N)Cc1cnc[nH]1)C(=O)NN(Cc1ccccc1)C(=O)N[C@H](Cc1ccccc1)C(=O)N[C@@H](CCCCN)C(N)=O [DBG253-1, His-D-Trp-Ala-azaPhe-D-Phe-Lys-NH2] (H-H[dW]A[azaPhe][dF]K-NH2)", "SIGN": "=", "DATA_VALUE": 5.87}
{"MOLECULE": "C[C@H](NC(=O)[C@@H](Cc1c[nH]c2ccccc12)NC(=O)[C@@H](N)Cc1cnc[nH]1)C(=O)NN(Cc1ccc(O)cc1)C(=O)N[C@H](Cc1ccccc1)C(=O)N[C@@H](CCCCN)C(N)=O [DBG178p, His-D-Trp-Ala-azaTyr-D-Phe-Lys-NH2] (H-H[dW]A[azaTyr][dF]K-NH2)", "SIGN": "=", "DATA_VALUE": 4.55}
{"MOLECULE": "C[C@H](NC(=O)[C@@H](Cc1c[nH]c2ccccc12)NC(=O)[C@@H](N)Cc1cnc[nH]1)C(=O)N[C@H](Cc1ccc(O)cc1)C(=O)N[C@H](Cc1ccccc1)C(=O)N[C@@H](CCCCN)C(N)=O [DBG253-8, His-D-Trp-Ala-D-Tyr-D-Phe-Lys-NH2] (H-H[dW]A[dY][dF]K-NH2)", "SIGN": "=", "DATA_VALUE": 4.92}
